tested on: HCV replicon RNA, genotype 1a (strain H77); assay: HCV replicon assay qRT-PCR, genotype 1a (Huh-1a7 replicon cell line); type: cell-based; details: Hepatitis C virus; Genotype-1a replicon, HCV RNA by qRT-PCR normalized to GAPDH RNA; read-out: 1a EC50

- compound: "C=C=C[C@@]1(O)C(O)[C@@H](CO)O[C@H]1n1ccc(=O)[nH]c1=O (stereo partly shown) [Example 1]"
  EC50: "> 10 µM"

----------
tested on: HCV replicon RNA, genotype 1b (strain Con1); assay: HCV replicon assay qRT-PCR, genotype 1b (SGR 11-7 replicon cell line); format: cell-based; conditions: Hepatitis C virus, read-out: 1b EC50
pEC50: −log10 of the molar value.
observable: pEC50

- molecule: "C=C=C[C@@]1(O)C(O)[C@@H](COP(=O)(N[C@@H](C)C(=O)OC)Oc2cccc3ccccc23)O[C@H]1n1ccc(=O)[nH]c1=O (stereo partly shown)"
  study.target: "HCV replicon RNA, genotype 1b (strain Con1)"
  observable: "pEC50"
  recorded.value: "5.00 to 6.00"

----------
test system: HCV replicon RNA, genotype 1a (strain H77); test: HCV replicon assay qRT-PCR, genotype 1a (Huh-1a7 replicon cell line); assay type: cell-based; settings: Hepatitis C virus, read-out: 1a EC50
pEC50: −log10 of the molar value.
observable: pEC50

- compound: "C=C=C[C@@]1(O)C(O)[C@@H](COP(=O)(N[C@@H](C)C(=O)OC)Oc2cccc3ccccc23)O[C@H]1n1ccc(=O)[nH]c1=O (stereo partly shown)"
  observable: "pEC50"
  recorded.value: "5.00 to 6.00"
